Please consider the recorded Ki for CATV (Homo sapiens) in what follows.
Property: Ki

>>> result("CC[C@H](NC(=O)[C@H](CC(F)(F)CC1CC1)NCC(F)(F)Oc1ccc(F)cc1)C(=O)C(=O)NC1CC1")
"< 100 nM"
>>> result("N#CC1(NC(=O)[C@H](CS(=O)(=O)Cc2cccnc2)NCC(F)(F)Oc2ccc(F)cc2)CC1")
"< 1000 nM"
>>> result("CC[C@H](NC(=O)[C@H](CS(=O)(=O)Cc1cccnc1)NCC(F)(F)Oc1ccc(F)cc1)C(=O)C(=O)NC1CC1")
"< 100 nM"
>>> result("CC#C[C@H](N[C@@H](CSCc1cccnc1)C(=O)NC1(C#N)CC1)C(F)(F)Oc1ccc(SC)cc1")
"< 1000 nM"
>>> result("CC[C@H](NC(=O)[C@H](CS(=O)(=O)CC1CC1)NCC(F)(F)Oc1ccc(F)cc1)C(=O)C(=O)NC1CC1")
"< 100 nM"
>>> result("CC#C[C@H](N[C@@H](CSCC1CC1)C(=O)NC1(C#N)CC1)C(F)(F)Oc1ccc(SC)cc1")
"> 1000 nM"
>>> result("CC#C[C@H](N[C@@H](CSCc1ccccn1)C(=O)NC1(C#N)CC1)C(F)(F)Oc1ccc(SC)cc1")
"< 1000 nM"
>>> result("CC#C[C@H](N[C@@H](CS(=O)(=O)CC1CC1)C(=O)NC1(C#N)CC1)C(F)(F)Oc1ccc(S(C)(=O)=O)cc1")
"< 1000 nM"
>>> result("CC#C[C@H](N[C@@H](CS(=O)(=O)Cc1ccccn1)C(=O)NC1(C#N)CC1)C(F)(F)Oc1ccc(S(C)(=O)=O)cc1")
"< 100 nM"
>>> result("CC#C[C@H](N[C@@H](CS(=O)(=O)Cc1ccc[n+]([O-])c1)C(=O)NC1(C#N)CC1)C(F)(F)Oc1ccc(S(C)(=O)=O)cc1")
"< 100 nM"
>>> result("N#CC1(NC(=O)[C@H](CC(F)(F)CC2CC2)NCC(F)(F)Oc2ccc(F)cc2)CC1")
"> 1000 nM"
>>> result("CC#C[C@H](N[C@@H](CS(=O)(=O)Cc1cccnc1)C(=O)NC1(C#N)CC1)C(F)(F)Oc1ccc(S(C)(=O)=O)cc1")
"< 100 nM"

Each recorded value in this set is attributed to patent EP2361243B9.
